Origin of values: PubChem BioAssay (NCATS)

- experiment-notes: qHTS for differential inhibitors of proliferation of Plasmodium falciparum line 7G8 (AID 1815);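 note: parasite growth measured after three days of incubation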; note: potency is the fitted concentration of half-maximal effect
- particulars: Plasmodium falciparum 7G8 proliferation inhibition; series mostly up to 28.7 µM
Inconclusive results are not listed. Calls of active or inactive are those of the source. Calls come from the whole dose curve; as a rule, active = well fitted curve in the direction sought with a large enough effect; inconclusive = small, poorly fitted or top-dose-only effect, or another doubt; inactive = no such curve, though single readings can be large or run the other way.
observed-property: Potency

Consider the reported Potency for these molecules:
>>> result("CCCNC(C)C(=O)Nc1ccccc1C (configuration not stated)")
"inactive"
>>> result("CCc1c(C)[nH]c2c1C(=O)C(CN1CCOCC1)CC2 (configuration not stated)")
"inactive"
>>> result("Nc1c2c(nc3ccccc13)CCCC2O (configuration not stated)")
"inactive"
>>> result("CCCN1C[C@H](CSC)C[C@@H]2c3cccc4[nH]cc(c34)C[C@H]21")
"11.2 µM (active)"
>>> result("CC1=NS(=O)(=O)c2cc(Cl)ccc2N1")
"inactive"
>>> result("COc1cc2c(cc1OC)-c1cc(=Nc3c(C)cc(C)cc3C)n(C)c(=O)n1CC2")
"2.24 µM (active)"
>>> result("CN(C)C(=O)Oc1cccc([N+](C)(C)C)c1")
"inactive"
>>> result("O=C(O)CP(=O)(O)O")
"inactive"

Prompt: Would you kindly share the measured Potency for CN(C)C(=O)Oc1ccc[n+](C)c1 ?
Response: inactive

Prompt: Would you kindly share the measured Potency for CN(C)CCOC(=O)COc1ccc(Cl)cc1 ?
Response: inactive

Prompt: Would you kindly share the measured Potency for COCCCC/C(=N\OCCN)c1ccc(C(F)(F)F)cc1 ?
Response: 10 µM (active)

Prompt: Would you kindly share the measured Potency for COCCOC(=O)C1=C(C)NC(C)=C(C(=O)OC(C)C)C1c1cccc([N+](=O)[O-])c1 (configuration not stated) ?
Response: 4.47 µM (active)
